Tested on: HT29 colon
ASSAY_NOTES: NCI tumour cell line growth inhibition, 48 h
Where a SMILES comes first, the peptide text is derived from it. [ ]: non-standard residue; d: D form. The star is where a group is joined. ξ: configuration not given here. Propanoyl(3-(4-MeO-Ph)) = COc1ccc(CCC(=O)*)cc1; Thr(3ξ) = CC(O)[C@H](N)C(=O)O; dNMeL = CN[C@H](CC(C)C)C(=O)O; ξLac = CC(O)C(=O)O
RECORDED_METRIC: TGI

Inquiry: Consider the compound shown here: C/C(CC(=O)Nc1ccc(Cl)cc1)=N\NC(=O)C[n+]1ccccc1 What is its recorded TGI?
Reply text: > 100 µM

Inquiry: // same read-out, input: O=C1OC(c2ccc(Cl)cc2)(c2ccc(Cl)cc2)c2c1ccc1ccccc21
Reply text: > 100 µM

Inquiry: // same read-out, input: CCCCCCCC(=O)OCC1OC(n2cc(F)c(=O)[nH]c2=O)C(NC(=O)OCc2ccccc2)C(O)C1O (stereo unspecified)
Reply text: > 100 µM

Inquiry: // same read-out, input: Cc1[nH]c(=O)nc2nc3ccc(Cl)cc3c(NC(C)(CO)CO)c12
Reply text: > 100 µM

Inquiry: // same read-out, input: Cc1cc(Nc2ccc(F)cc2)nc(N2CCN(c3ccnc4cc(Cl)ccc34)CC2)n1
Reply text: > 100 µM

Inquiry: // same read-out, input: NC(=S)N/N=C/c1ccc(O)cn1
Reply text: > 929 µM

Inquiry: // same read-out, input: COC(=O)[C@@H](NC(=O)[C@@H](CC(C)C)N(C)C(=O)[C@@H]1CCCN1C(=O)C(C)O)C(C)OC(=O)CCc1ccc(OC)cc1 (stereo partly specified) (H-[ξLac]P[dNMeL][Thr(3ξ)](Propanoyl(3-(4-MeO-Ph)))-OMe)
Reply text: > 100 µM

Inquiry: // same read-out, input: CCCCCCCCCCCCCCCCCCOc1ccc(/C=C/C2=[N+](CCCl)CCO2)cc1
Reply text: > 100 µM

Inquiry: // same read-out, input: COc1ccc(-c2nnc(-c3ccncc3)o2)cc1
Reply text: > 100 µM

Inquiry: // same read-out, input: O=C(Cc1ccccc1)N=Nc1c(O)[nH]c2ccccc12
Reply text: > 100 µM

Inquiry: // same read-out, input: CN(C(=O)C12C3(C(=O)C(C)(C)C)C4C5(C#N)C3C1(C(=O)C(C)(C)C)C5C42C(=O)C(C)(C)C)C(C)(C)C (stereo unspecified)
Reply text: > 50 µM

Inquiry: // same read-out, input: COc1ccc(/C=N/n2cnc3c(c2=O)S/C(=C2/SC(=S)N(c4ccc(C)cc4)C2=O)N3c2ccccc2)cc1
Reply text: > 100 µM

Inquiry: // same read-out, input: Clc1cccc(N2CCN(CCN3CCc4c([nH]c5ccccc45)C3c3cccnc3)CC2)c1 (stereo unspecified)
Reply text: > 80.4 µM

Inquiry: // same read-out, input: COc1cc2c(cc1OC)-c1ccc3cc4c(cc3c1N(CCN(C)C)C2)OCO4
Reply text: 1.64 µM

Inquiry: // same read-out, input: C[C@H](N)C(=O)N[C@@H]1[C@H]2C(=C(O)C[C@@H](O)[C@@H]2O)C(=O)O[C@@H]1C
Reply text: > 100 µM

Inquiry: // same read-out, input: COC(=O)c1c(O)ccc2c1c1c(n2Cc2ccccn2)C(=O)c2ccccc2C1=O
Reply text: 17.4 µM

Inquiry: // same read-out, input: CCC(=O)C(C)C(=O)C(=O)C(=O)OC (stereo unspecified)
Reply text: > 100 µM

Inquiry: // same read-out, input: CCOc1cc2c(cc1O)CC[C@@H]1[C@@H]2CC[C@]2(C)C(OS(=O)OC3CC[C@@H]4[C@H]5CCc6cc(O)c(OCC)cc6[C@@H]5CC[C@@]34C)CC[C@@H]12 (stereo partly specified)
Reply text: > 53.7 µM

Inquiry: // same read-out, input: C[C@@H](NC(=O)[C@@H](CC(=O)N1CCC(N2CCCCC2)CC1)N1C(=O)[C@@H](N2C(=O)OC[C@@H]2c2ccccc2)[C@H]1/C=C/c1cccc(Cl)c1)c1ccccc1
Reply text: 7.95 µM

Inquiry: // same read-out, input: COc1ccc2c(c1)c1nc3cc(C)c(C)cc3nc1n2CCN(C)C
Reply text: 1.94 µM

Inquiry: // same read-out, input: C[C@]12CC[C@H](O)CC1=CC[C@@H]1[C@@H]2CC[C@]2(C)c3nc(Cl)ccc3C[C@@H]12
Reply text: > 100 µM

Inquiry: // same read-out, input: CCOC(=O)Cn1nnc2cc(Nc3nc4ccccc4nc3C(=O)OCC)ccc21
Reply text: > 100 µM

Inquiry: // same read-out, input: Cn1c(N=[N+]=[N-])cc(=O)n(C)c1=O
Reply text: > 100 µM

Inquiry: // same read-out, input: NC(=O)CCC(NC(=O)c1cccc2c(=O)c3ccccc3[nH]c12)C(=O)O (stereo unspecified)
Reply text: > 100 µM

Inquiry: // same read-out, input: COP(=O)(OC)c1ccc(NCc2cc(O)ccc2O)cc1
Reply text: 56.3 µM

Inquiry: // same read-out, input: COC(=O)[C@@]1(O)CC(C)C=C1C=O (stereo partly specified)
Reply text: > 100 µM

Inquiry: // same read-out, input: c1ccc(CCN2CCN=C2Cc2ccccc2)cc1
Reply text: > 100 µM

Inquiry: // same read-out, input: Cc1ccc(C(=O)N2c3ccccc3N(C)n3cccc3C2CC(=O)O)cc1 (stereo unspecified)
Reply text: > 100 µM

Inquiry: // same read-out, input: CNc1ncnc2c1nnn2C
Reply text: > 100 µM

Inquiry: // same read-out, input: CC1=C(C(=O)Nc2ccc([N+](=O)[O-])cc2)C(c2ccccc2O)C(C(=O)Nc2ccc([N+](=O)[O-])cc2)=C(C)N1
Reply text: 57.8 µM

Inquiry: // same read-out, input: Cc1cccc(Cl)c1NC(=O)c1cnc(Nc2cc(N3CCOCC3)cc(N3CCOCC3)c2)s1
Reply text: 0.19 µM

Inquiry: // same read-out, input: COC(=O)[C@@]12OC[C@]34C([C@@H](O)C1O)[C@@]1(C)CC(=O)C(O)=C(C)C1C[C@H]3OC(=O)[C@H](OC(=O)/C=C(/c1ccccc1)C(F)(F)F)[C@H]42 (stereo partly specified)
Reply text: 15 µM

Inquiry: // same read-out, input: N#C/C(=C\Nc1ccccn1)C(=O)c1ccco1
Reply text: > 100 µM

Inquiry: // same read-out, input: N#Cc1ccc(Nc2cnc3ccc(N)cc3n2)cc1
Reply text: > 100 µM

Inquiry: // same read-out, input: Nc1nc(NC2C=C(CO)C(O)C2O)c([N+](=O)[O-])c(=O)[nH]1 (stereo unspecified)
Reply text: > 100 µM

Inquiry: // same read-out, input: COc1cc2c(cc1OC(=O)c1cc3ccccc3[nH]1)N=C[C@@H]1CCCN1C2=O
Reply text: 0.36 µM

Inquiry: // same read-out, input: O=S(=O)(O)c1cc(Nc2ccnc3ccccc23)c2c(S(=O)(=O)O)cc(S(=O)(=O)O)cc2c1
Reply text: > 100 µM

Inquiry: // same read-out, input: COc1cc(O)c2c(=O)c(OC)c(-c3ccc4c(c3)OCO4)oc2c1OC
Reply text: > 50 µM

Inquiry: // same read-out, input: C=CCCC(On1c(-c2ccc(Cl)cc2)csc1=S)c1ccccc1 (stereo unspecified)
Reply text: > 100 µM

Inquiry: // same read-out, input: COc1ccc([I+]c2ccccc2)cc1
Reply text: > 100 µM

Inquiry: // same read-out, input: O=C(Nc1ccc2[nH]c(C(=O)N3CC(CCl)c4c3cc([N+](=O)[O-])c3ccccc43)cc2c1)c1cc2ccccc2o1 (stereo unspecified)
Reply text: > 1100 µM
